Where do the numbers come from? From PubChem BioAssay AID1159580.

# run.description: chemical genetic growth profiling, strain panel (AID 1159580);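 note: tested at 20 µM; growth read once vehicle control cultures reached saturation at 30 °C; 1 = growth at the plate median or of vehicle wells; lower values mean less growth of the strain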
# condition.context: S. cerevisiae deletion strains, growth OD, locus YMR263W, strain SAP30, hits give low values
In all, about 5,500 compounds went through this assay and about 2,000 (36%) were called active. Not shown: some 18% with an inconclusive outcome. The list shows a part of the results.
Provide the recorded normalized growth for the entries that follow.
Field format: numeric only.

Record request: normalized growth value, item `Nc1nc(Sc2ccc(C(F)(F)F)cc2[N+](=O)[O-])n[nH]1`
1.01

Record request: normalized growth value, item `O=[N+]([O-])c1cc(C(F)(F)F)ccc1Sc1ccc(Cl)cc1`
1.01

Record request: normalized growth value, item `COc1c([N+](=O)[O-])cc(C(F)(F)F)cc1[N+](=O)[O-]`
0.971

Record request: normalized growth value, item `O=C(O)CCC(=O)OC[C@@H](NC(=O)C(Cl)Cl)[C@H](O)c1ccc([N+](=O)[O-])cc1`
1.01

Record request: normalized growth value, item `CCCCN(CC)c1c([N+](=O)[O-])cc(C(F)(F)F)cc1[N+](=O)[O-]`
1.02

Record request: normalized growth value, item `Cc1noc(C)c1C(=O)N1CCOCC1`
0.982

Record request: normalized growth value, item `N#Cc1cc(I)c(C#N)c(I)c1`
0.775

Record request: normalized growth value, item `CCn1c(=O)[nH]c2cc(Cl)c(Cl)cc21`
1

Record request: normalized growth value, item `CCOC(=O)c1cnc(SCC(=O)c2ccc(Cl)cc2Cl)[nH]1`
0.938

Record request: normalized growth value, item `Oc1cc2c(cc1O)[C@H]1c3ccccc3CN[C@@H]1CC2`
1

Record request: normalized growth value, item `Cc1c(NC(C)C)c(=O)n(-c2ccccc2)n1C`
1

Record request: normalized growth value, item `Nc1nc(Sc2cc(-n3cccc3)c(Cl)cc2[N+](=O)[O-])n[nH]1`
1.01

Record request: normalized growth value, item `COc1cc2cccc(OC)c(=O)c2c(OC)c1OC`
0.996

Record request: normalized growth value, item `O=[N+]([O-])c1cc(C(F)(F)F)cc([N+](=O)[O-])c1Oc1ccc(Cl)c(Cl)c1`
0.0593

Record request: normalized growth value, item `COc1ccc(Oc2ccc(C(F)(F)F)cc2[N+](=O)[O-])cc1`
0.917

Record request: normalized growth value, item `CC1=C(C)C(=O)C(CCCCC#CCCCC#CCO)=C(C)C1=O`
1

Record request: normalized growth value, item `CCOC(=O)c1c[nH]c2c(F)cccc2c1=O`
1.01

Record request: normalized growth value, item CCOC(=O)c1ccc(N2CC3CCCCN3C2c2ccc(Cl)c(Cl)c2)cc1 (centres undefined)
0.976

Record request: normalized growth value, item `CCOC(=O)c1ccc(Oc2ncc(C(F)(F)F)cc2Cl)cc1`
0.988

Record request: normalized growth value, item `CON`
1

Record request: normalized growth value, item `N=C(N)SCc1c(F)cccc1Cl`
1.04

Record request: normalized growth value, item `O=[N+]([O-])c1cc(C(F)(F)F)ccc1Oc1cc(C(F)(F)F)cc(C(F)(F)F)c1`
0.993

Record request: normalized growth value, item `CC(C)N1C(=O)c2ccccc2NS1(=O)=O`
1.01

Record request: normalized growth value, item `CC(C)NP(=O)(NC(C)C)OP(=O)(NC(C)C)NC(C)C`
0.991
